Kd reference
target: T1, human CD123 (full-length, on cells) (human, UniProt P26951 19-378); experiment: flow cytometry on HEK 293 cells transfected with full-length CD123; apparent Kd, one-site fit
T1 construct: also called CD123-FL; interleukin-3 receptor alpha chain
T1 sequence (P26951 19-378): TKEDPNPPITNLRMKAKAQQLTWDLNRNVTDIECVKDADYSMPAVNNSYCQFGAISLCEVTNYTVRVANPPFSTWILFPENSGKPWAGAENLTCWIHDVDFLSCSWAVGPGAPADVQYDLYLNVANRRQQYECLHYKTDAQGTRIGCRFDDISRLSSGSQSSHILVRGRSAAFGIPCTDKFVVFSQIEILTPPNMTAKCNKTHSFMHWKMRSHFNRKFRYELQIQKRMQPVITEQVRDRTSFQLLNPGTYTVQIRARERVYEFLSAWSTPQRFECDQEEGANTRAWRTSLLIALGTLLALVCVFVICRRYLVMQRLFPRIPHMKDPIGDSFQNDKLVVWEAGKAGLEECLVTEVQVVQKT
Answer in nM, number only, no unit symbol.

Example results:
binder="4F2-IgG1 (Fc fusion) EVQLVQSGGGLVQAGGSLRLSCAASGRTVSNYPMAWFRQAPGKEREFVAHISWSGITSILNSVNDRFTISRDNAKNTIYLQMNSLKPEDTAVYYCAAAQRPTAGPKGPFGYWGQGTQVTVDKTHTCPPCPAPGGPSVFLFPPKPKDTLMISRTPEVTCVVVDVSHEDPEVKFNWYVDGVEVHNAKTKPREEQYNSTYRVVSVLTVLHQDWLNGKEYKCKVSNKALPAPIEKTISKAKGQPREPQVYTLPPSRDELTKNQVSLTCLVKGFYPSDIAVEWESNGQPENNYKTTPPVLDSDGSFFLYSKLTVDKSRWQQGNVFSCSVMHEALHNHYTQKSLSLSPGK" unit_label=nM readout_number=1.37
binder="A5-IgG1 (Fc fusion, No linker between VHH and Fc is stated; also called sdAb A5) EVQLVQSGGGLVQAGGSLRLSCAVSGGTFSSYGMAWFRQPPGKEREWVASNSWIAGSTYYAGSVKGRFTISRDNAKNTVYLQMNSLKPEDTAVYYCAADLLATADDEYDYWGQGTQVTVDKTHTCPPCPAPGGPSVFLFPPKPKDTLMISRTPEVTCVVVDVSHEDPEVKFNWYVDGVEVHNAKTKPREEQYNSTYRVVSVLTVLHQDWLNGKEYKCKVSNKALPAPIEKTISKAKGQPREPQVYTLPPSRDELTKNQVSLTCLVKGFYPSDIAVEWESNGQPENNYKTTPPVLDSDGSFFLYSKLTVDKSRWQQGNVFSCSVMHEALHNHYTQKSLSLSPGK" unit_label=nM readout_number=0.12
binder="hz1B11v28-IgG1 (Fc fusion, also called hz1B11v28 sdAb) EVQLVESGGGEVQPGGSLRLSCAASGRTQSAVAMGWFRQAPGKDRDFVAAIRWSGGNTYYAESVEGRFTISRDNAKNTVYLQMSSLRAEDTAVYSCAISLNHFGLYDYWGQGTLVTVDKTHTCPPCPAPGGPSVFLFPPKPKDTLMISRTPEVTCVVVDVSHEDPEVKFNWYVDGVEVHNAKTKPREEQYNSTYRVVSVLTVLHQDWLNGKEYKCKVSNKALPAPIEKTISKAKGQPREPQVYTLPPSRDELTKNQVSLTCLVKGFYPSDIAVEWESNGQPENNYKTTPPVLDSDGSFFLYSKLTVDKSRWQQGNVFSCSVMHEALHNHYTQKSLSLSPGK" unit_label=nM readout_number=0.96

# next binder below
[Q] # input binder: hz4F2v3-IgG1 (Fc fusion, also called hz4F2v3 sdAb) EVQLVESGGGEVQPGGSLRLSCAASGRTVSNYPMAWFRQAPGKEREFVAHISWSGITSILNSVNDRFTISRDNAKNTIYLQMSSLRAEDTAVYYCAAAQRPTAGPKGPFGYWGQGTLVTVDKTHTCPPCPAPGGPSVFLFPPKPKDTLMISRTPEVTCVVVDVSHEDPEVKFNWYVDGVEVHNAKTKPREEQYNSTYRVVSVLTVLHQDWLNGKEYKCKVSNKALPAPIEKTISKAKGQPREPQVYTLPPSRDELTKNQVSLTCLVKGFYPSDIAVEWESNGQPENNYKTTPPVLDSDGSFFLYSKLTVDKSRWQQGNVFSCSVMHEALHNHYTQKSLSLSPGK ; wanted: its Kd
[A] 2.4
